Please provide measured pIC50 for the entries that follow.
target: MAPK14;MAPK11;MAPK12 (human); experiment: Inhibition of p38 Kinase Activity
pIC50: −log10 of the molar value.

{"columns": ["compound", "experimental.value"],
 "data": [
  ["Cc1ccc(C(N)=O)cc1Nc1nc(N[C@H]2CCN(C(C#N)c3ccccc3)C2)nc(N(C)CC(C)C)n1 (stereo partly specified)", "> 6.00"]
]}

Please look at the items below and tell me pIC50 for each one, in order.
1. CC(CNc1nc(Nc2ccc3ncsc3c2)nc(N(C)CCCN(C)C(=O)c2ccco2)n1)c1ccccc1 (stereo unspecified)
2. Cc1ccc(C(=O)Nc2ccccn2)cc1Nc1nc(N[C@H]2CCNC2)nc(N(C)CC(C)(C)C)n1

output:
> 5.00
> 6.00
